- System: OVCAR-5
- assay explanation: NCI tumour cell line growth inhibition, 48 h
Active and inactive are the calls of the source. Rule as the data show it: active = GI50 up to about 1.1 µM and inactive = higher.
Assignment: determine reported GI50 for the given compounds.

Dear colleague, I am looking for the recorded GI50 of the following compound: Nc1nc(N)c(N=Nc2ccc([As](=O)(O)O)c(O)c2)c(N)n1
> 100 µM (inactive)

Dear colleague, I am looking for the recorded GI50 of the following compound: Cc1ccc(C2=Nc3ccccc3NC(=O)C2)cc1
> 100 µM (inactive)

Dear colleague, I am looking for the recorded GI50 of the following compound: COC(=O)CCc1ccc2c(c1)CC1(Cc3ccccc3C1)C2
> 100 µM (inactive)

Dear colleague, I am looking for the recorded GI50 of the following compound: COc1ccc(N2C(=O)C3c4[nH]c5ccccc5c4C4CCCCCCCCCCC4C3C2=O)cc1 (stereo not given)
> 37.1 µM (inactive)

Dear colleague, I am looking for the recorded GI50 of the following compound: COc1cc(C(=O)CBr)c(OC)cc1C
> 100 µM (inactive)

---

- Test system: KM-20L2
- assay explanation: NCI tumour cell line growth inhibition, 48 h
The source made the active and inactive calls. No stated cut-off is given here; in the data, active = GI50 up to about 1.1 µM and inactive = higher.
Pick one: active, inactive

Which outcome did this test record for the molecule CCCCCCCC(=O)OC(CBr)COC(=O)C(C)(C)C (stereo unspecified) ?
inactive

Which outcome did this test record for the molecule O=c1[nH]nc2c3n[nH]c(=O)n3c3ccccc3n12 ?
inactive

Which outcome did this test record for the molecule COC(=O)N/N=C(\C)CC(=O)Nc1ccc(Cl)cc1 ?
inactive

Which outcome did this test record for the molecule CCOC(=O)c1[nH]c(COC(C)=O)c2c1CCCCCCCCCC2 ?
inactive

Which outcome did this test record for the molecule O=C1C=C(Nc2ccccc2C(=O)CC(=O)C(=O)Nc2cccc([N+](=O)[O-])c2)c2ccccc2C1=O ?
inactive

Which outcome did this test record for the molecule CCOC(=O)c1cc(/C=C/C(C)=C/C(=O)OC)oc1-c1ccccc1 ?
inactive

Which outcome did this test record for the molecule COc1cccc(OC)c1/C=N\N1C(=O)c2ccccc2C1=O ?
inactive

Which outcome did this test record for the molecule Cc1ccc(C2=Nc3ccccc3NC(=O)C2)cc1 ?
inactive

Which outcome did this test record for the molecule C[C@@H]1C[C@H]2[C@@H]3CCC4=CC(=O)C=C[C@]4(C)[C@@]3(F)[C@@H](O)C[C@]2(C)[C@@]1(O)C(=O)CO ?
inactive

Which outcome did this test record for the molecule CN1CCC(C(=O)NNc2ccccc2)CC1 ?
inactive

Which outcome did this test record for the molecule O=S(=O)(O)c1ccc(/N=N/c2nc(C(F)(F)F)c(C(F)(F)F)[nH]2)cc1 ?
inactive

Which outcome did this test record for the molecule CCOC(=O)c1c(C)c(C)n2c1NC(=O)C2 ?
inactive

Which outcome did this test record for the molecule COC1CC(CC2CCC(C)C(C(C)C(=O)O)O2)OC2(OC(C)(C3CCC(C)(C4OC(C5OC(O)(CO)C(C)CC5C)CC4C)O3)CC2C)C1C (stereo unspecified) ?
active

Which outcome did this test record for the molecule Cc1c2ccccc2c(CO)c2cc(F)c3ccccc3c12 ?
inactive

Which outcome did this test record for the molecule c1coc(CNc2[nH]cnc3nncc2-3)c1 ?
inactive

Which outcome did this test record for the molecule CC(=O)Oc1ccc(CO)cc1OC(C)=O ?
inactive

Which outcome did this test record for the molecule Nc1nc(Cl)cc(NCCCNc2cc(Cl)nc(N)n2)n1 ?
inactive

Which outcome did this test record for the molecule CN1c2c(O)nc(N)nc2NCC1CCNc1ccc(C(=O)NC(CCC(=O)O)C(=O)O)cc1 (stereo unspecified) ?
inactive

Which outcome did this test record for the molecule N#CC(NNC(=O)Cc1ccccc1)c1c(O)ccc2ccccc12 (stereo unspecified) ?
inactive

Which outcome did this test record for the molecule O=[N+]([O-])C1(CO)COC2(OC1)c1ccccc1-c1ccccc12 ?
inactive

Which outcome did this test record for the molecule CCC1=CCN(c2cc(C)ccn2)OC1c1ccccc1 (stereo unspecified) ?
inactive

---

- Tested on: SF-295
- assay explanation: NCI tumour cell line growth inhibition, 48 h
Activity calls are given as the source filed them. No stated cut-off is given here; in the data, active = GI50 up to about 1.1 µM and inactive = higher.
Assignment: determine reported GI50 for the given compounds.

Dear colleague, I am looking for the recorded GI50 of the following compound: c1ccc2c(c1)CCN1CCc3c([nH]c4ccccc34)C21 (centres undefined)
20 µM (inactive)

Dear colleague, I am looking for the recorded GI50 of the following compound: CC(C)C(Sc1nc(-c2ccccc2)c(-c2ccccc2)[nH]1)c1n[nH]c(=S)n1-c1ccccc1 (centres undefined)
22.3 µM (inactive)

Dear colleague, I am looking for the recorded GI50 of the following compound: CCC1=CCN(c2cc(C)ccn2)OC1c1ccccc1 (centres undefined)
39.3 µM (inactive)

Dear colleague, I am looking for the recorded GI50 of the following compound: CC(N)Cc1ccc(F)cc1 (centres undefined)
> 100 µM (inactive)

---

- Test system: NCI-H23
- assay explanation: NCI tumour cell line growth inhibition, 48 h
Calls of active or inactive are those of the source. Rule as the data show it: active = GI50 up to about 1.1 µM and inactive = higher.
assay readout: GI50

Dear colleague, I am looking for the recorded GI50 of the following molecule: N#Cc1nc(C2CCC2)oc1N
> 100 µM (inactive)

Dear colleague, I am looking for the recorded GI50 of the following molecule: O=C1C=C(Nc2ccccc2C(=O)CC(=O)C(=O)Nc2cccc([N+](=O)[O-])c2)c2ccccc2C1=O
26.9 µM (inactive)

Dear colleague, I am looking for the recorded GI50 of the following molecule: CC(c1ccc(Br)cc1)C(C(=O)O)C(=O)O (stereo not given)
> 100 µM (inactive)

Dear colleague, I am looking for the recorded GI50 of the following molecule: O=c1[nH]c2ccccc2c(=O)c2cc3ccccc3cc12
19.1 µM (inactive)

Dear colleague, I am looking for the recorded GI50 of the following molecule: O=C1N2CCC[C@H]2CS1(=O)=O
15.8 µM (inactive)

Dear colleague, I am looking for the recorded GI50 of the following molecule: COc1ccc(/C=C/C(=O)/C=C/c2ccc(OC)cc2OC)c(OC)c1
10.2 µM (inactive)

Dear colleague, I am looking for the recorded GI50 of the following molecule: COc1ccccc1/N=N/C(=N\NC(=O)c1ccc(C)cc1)c1ccc(N(CCC#N)CCC#N)cc1C
28.2 µM (inactive)

Dear colleague, I am looking for the recorded GI50 of the following molecule: O=C(CSc1nc2ccc(I)cc2c(=O)n1Cc1ccccc1)NN1C(=O)CSC1c1ccccc1 (stereo not given)
18.3 µM (inactive)

Dear colleague, I am looking for the recorded GI50 of the following molecule: COC1CC2CCC(C)[C@](O)(O2)C(=O)C(=O)N2CCCCC2C(=O)OC(C(C)CC2CCC(O)C(OC)C2)CC(=O)C(C)C=C(C)C(OC(=O)CN(C)C)C(OC)C(=O)C(C)CC(C)/C=C/C=C/C=C\1C (stereo not given in full)
10.9 µM (inactive)

Dear colleague, I am looking for the recorded GI50 of the following molecule: COc1cc(OC)cc(N2CCC(c3c(N)nc(N)nc3Cl)CC2)c1
> 100 µM (inactive)

---

Assignment: determine reported GI50 for the given molecules.
- Tested on: ACHN
- assay explanation: NCI tumour cell line growth inhibition, 48 h
Active and inactive are the calls of the source. Cut-off read from the data, not from the text of the source: active = GI50 up to about 1.1 µM and inactive = higher.

Dear colleague, I am looking for the recorded GI50 of the following molecule: C#CCn1ncc2c(SC)ncnc21
> 100 µM (inactive)

Dear colleague, I am looking for the recorded GI50 of the following molecule: OCC[N+]12CCCN1CCC2
> 100 µM (inactive)

Dear colleague, I am looking for the recorded GI50 of the following molecule: CN1c2c(O)nc(N)nc2NCC1CCNc1ccc(C(=O)NC(CCC(=O)O)C(=O)O)cc1 (stereo unspecified)
45.4 µM (inactive)

Dear colleague, I am looking for the recorded GI50 of the following molecule: COC(=O)/C(=C/CC(N=C(c1ccccc1)c1ccccc1)C(=O)OC)N=C(c1ccccc1)c1ccccc1 (stereo unspecified)
> 100 µM (inactive)

Dear colleague, I am looking for the recorded GI50 of the following molecule: CC1(C2CCC3(C)C(C2)C3Sc2ccccc2)OCCO1 (stereo unspecified)
20.7 µM (inactive)

Dear colleague, I am looking for the recorded GI50 of the following molecule: CC(C#N)NCc1ccc(C(C)NC(C)C#N)cc1 (stereo unspecified)
> 100 µM (inactive)

---

Assignment: determine reported GI50 for the given compounds.
- Tested on: HCT-116
- assay explanation: NCI tumour cell line growth inhibition, 48 h
Calls of active or inactive are those of the source. Cut-off read from the data, not from the text of the source: active = GI50 up to about 1.1 µM and inactive = higher.

Dear colleague, I am looking for the recorded GI50 of the following compound: COc1ccc2c(c1)CC[C@@H]1C2CC[C@]2(C)C(=C=CP(=O)(O)O)CCC12 (some centres not stated)
> 100 µM (inactive)

Dear colleague, I am looking for the recorded GI50 of the following compound: COC12C=CC(C=C1C#N)CC2.COC12C=CC(CC1)CC2=O (configuration not stated)
> 100 µM (inactive)

Dear colleague, I am looking for the recorded GI50 of the following compound: O=C(O)C(Cc1cc(I)c(O)c(I)c1)C1CCCCC1 (configuration not stated)
26.5 µM (inactive)

Dear colleague, I am looking for the recorded GI50 of the following compound: C=C(Br)CN(C(C)=O)C1CCCCC1
> 100 µM (inactive)

Dear colleague, I am looking for the recorded GI50 of the following compound: CN1CCN(C(=O)CCNC(=O)Cc2ccc(C(=O)c3ccccc3)cc2)CC1
> 100 µM (inactive)

Dear colleague, I am looking for the recorded GI50 of the following compound: CC(C)=CCC/C(C)=C/CC/C(C)=C/CCC1(C)CCC([C@H](C)C(=O)O)OO1.CC1=C(CC/C(C)=C/CCC2(C)CCC([C@H](C)C(=O)O)OO2)C(C)(C)CCC1 (some centres not stated)
> 100 µM (inactive)

Dear colleague, I am looking for the recorded GI50 of the following compound: CCNC(=O)OCc1c(COC(=O)NCC)c(-c2ccc(Cl)c(Cl)c2)n2c1CCC2
9.4 µM (inactive)

Dear colleague, I am looking for the recorded GI50 of the following compound: C[C@@H]1C[C@H]2[C@@H]3CCC4=CC(=O)C=C[C@]4(C)[C@@]3(F)[C@@H](O)C[C@]2(C)[C@@]1(O)C(=O)CO [DEXAMETHASONE]
> 100 µM (inactive)

Dear colleague, I am looking for the recorded GI50 of the following compound: c1ccc2[nH]c(CNc3ccc(C4C[Se]N=N4)cc3)nc2c1 (configuration not stated)
41.2 µM (inactive)

Dear colleague, I am looking for the recorded GI50 of the following compound: COC(=O)C1=C(O)C(C(=O)OC)[C@]2(O)[C@H](C(=O)OC)[C@H]1C[C@@H](c1ccc(C(F)(F)F)cc1)[C@H]2C(=O)OC (some centres not stated)
2.54 µM (inactive)

Dear colleague, I am looking for the recorded GI50 of the following compound: O=c1[nH]nc2c3n[nH]c(=O)n3c3ccccc3n12
> 100 µM (inactive)

Dear colleague, I am looking for the recorded GI50 of the following compound: CC(=O)OCC1=CC2OC(=O)C3=COC(OC4OC(CO)C(O)C(O)C4O)C1C32 (configuration not stated)
> 100 µM (inactive)

Dear colleague, I am looking for the recorded GI50 of the following compound: Clc1cc2ncn(C3CCCCO3)c2cc1Cl (configuration not stated)
51.9 µM (inactive)

Dear colleague, I am looking for the recorded GI50 of the following compound: N#CCCSC(=S)C1CCCC1=N (configuration not stated)
> 100 µM (inactive)

Dear colleague, I am looking for the recorded GI50 of the following compound: COc1cc2c(cc1O)CCN(C)[C@H]2Cc1ccc(Oc2c(O)c(OC)cc3c2C[C@H]2c4c(c(OC)c(OC)c(OC)c4-3)CCN2C)cc1 [THALIFABERIDINE]
2.99 µM (inactive)

Dear colleague, I am looking for the recorded GI50 of the following compound: COc1ccccc1/N=N/C(=N\NC(=O)c1ccc(C)cc1)c1ccc(N(CCC#N)CCC#N)cc1C
31.6 µM (inactive)

Dear colleague, I am looking for the recorded GI50 of the following compound: CCOC(=O)c1sc2nc(SC)nc3c2c1NCN3c1ccc2c(c1)OCO2
27.5 µM (inactive)

Dear colleague, I am looking for the recorded GI50 of the following compound: OC1(C23CC4CC(CC(C4)C2)C3)CSCC1(O)C12CC3CC(CC(C3)C1)C2 (configuration not stated)
> 100 µM (inactive)

Dear colleague, I am looking for the recorded GI50 of the following compound: CCOc1ccc(N/C(=C(/C(Cl)=C(/Cl)NCCN)[N+](=O)[O-])n2nnc3ccccc32)cc1
24.3 µM (inactive)

Dear colleague, I am looking for the recorded GI50 of the following compound: O=C(CSc1nc2ccc(I)cc2c(=O)n1Cc1ccccc1)NN1C(=O)CSC1c1ccccc1 (configuration not stated)
24 µM (inactive)

Dear colleague, I am looking for the recorded GI50 of the following compound: N=C(N)N/N=C/c1c(-c2ccccc2[N+](=O)[O-])nc2sccn12
18.6 µM (inactive)

Dear colleague, I am looking for the recorded GI50 of the following compound: C#CCCCCC#Cc1ccccc1C(=O)OC
11 µM (inactive)
